These measurements were taken from ChEMBL document CHEMBL3739399.

Documented pIC50 across a set of compounds
target: DNA gyrase subunit B (Staphylococcus aureus, UniProt P0A0K8); assay: Inhibition of Staphylococcus aureus Gyrase B ATPase activity by fluorescence analysis
Sequence (P0A0K8 whole entry): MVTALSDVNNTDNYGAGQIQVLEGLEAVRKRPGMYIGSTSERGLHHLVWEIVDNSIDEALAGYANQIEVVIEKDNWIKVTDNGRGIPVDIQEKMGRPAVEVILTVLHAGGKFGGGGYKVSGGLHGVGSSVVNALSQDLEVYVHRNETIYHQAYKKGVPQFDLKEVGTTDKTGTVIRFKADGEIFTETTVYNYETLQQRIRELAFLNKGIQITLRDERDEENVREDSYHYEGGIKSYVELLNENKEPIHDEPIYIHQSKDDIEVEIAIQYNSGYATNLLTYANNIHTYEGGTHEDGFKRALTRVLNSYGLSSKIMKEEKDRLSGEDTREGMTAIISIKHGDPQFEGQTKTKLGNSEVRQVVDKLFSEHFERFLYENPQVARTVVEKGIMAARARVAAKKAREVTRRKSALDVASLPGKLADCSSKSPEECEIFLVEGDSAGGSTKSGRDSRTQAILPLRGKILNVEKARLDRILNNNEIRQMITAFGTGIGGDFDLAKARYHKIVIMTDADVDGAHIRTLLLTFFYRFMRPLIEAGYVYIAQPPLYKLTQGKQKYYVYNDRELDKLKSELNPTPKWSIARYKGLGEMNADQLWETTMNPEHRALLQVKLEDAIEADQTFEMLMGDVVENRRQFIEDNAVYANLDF
pIC50: −log10 of the molar value.
reported endpoint: pIC50

>>> print(df.to_string())
                           structure_string  operator_symbol  reported_result
0  CCCc1cccc2c(-c3cnc(-c4ccc(C(=O)O)c(F)c4)s3)n[nH]c12                >             8.10
1  CCCc1cccc2c(-c3cnc(-c4ccc(CO)nc4)s3)n[nH]c12                =             7.82
2  CCCc1c(O)ccc2c(-c3cnc(-c4cnc(C(=O)O)c(O)c4)s3)n[nH]c12                =             7.89
3  C=CCc1cccc2c(-c3cnc(-c4ccc(C(=O)O)nc4)s3)n[nH]c12                =             8.05
4  CCCc1cccc2c(-c3cnc(-c4ccc(C(=O)NCCN5CCCCC5)nc4)s3)n[nH]c12                =             7.70
5  CCCc1cccc2c(-c3cnc(-c4cnc(C(=O)O)c(OC)c4)s3)n[nH]c12                =             7.85

* * *

test system: Enterococcus faecium; assay: Antibacterial activity against Enterococcus faecium for 18 to 20 hrs by broth microdilution method; format: functional
Recorded MIC, one value per entry.
reported endpoint: MIC

                           structure_string  reported_endpoint  reported_result
0  CCCc1cccc2c(-c3cnc(-c4ccc(C(=O)O)c(=O)[nH]4)s3)n[nH]c12                MIC        > 8 µg/mL
1  CCCc1cccc2c(-c3cnc(-c4ccc(CO)nc4)s3)n[nH]c12                MIC        > 8 µg/mL
2             CCCc1cccc2c(-c3cncs3)n[nH]c12                MIC       > 32 µg/mL

* * *

biological target: DNA gyrase subunit B (Staphylococcus aureus, UniProt P0A0K8); test: Inhibition of Staphylococcus aureus Gyrase B ATPase activity by fluorescence analysis
# maps each entry to its IC50
reported endpoint: IC50

In [3]: df
Out[3]:
                           structure_string  reported_result
0  CCCc1cccc2c(-c3cnc(-c4cnc(C(=O)O)c(F)c4)s3)n[nH]c12           < 8 nM
1  CCCOc1nccc2c(-c3cnc(-c4ccc(C(=O)O)nc4)s3)n[nH]c12           < 8 nM
2  CCOc1nccc2c(-c3cnc(-c4cnc(C(=O)O)cc4C)s3)n[nH]c12           < 8 nM

* * *

Let's look at some compounds and their measured MIC.
system: Enterococcus faecalis; assay: Antibacterial activity against Enterococcus faecalis for 18 to 20 hrs by broth microdilution method; assay type: functional
reported endpoint: MIC

>>> print(df.to_string())
                           structure_string  reported_result
0  CCCc1cccc2c(-c3cnc(-c4ccnc(C(=O)O)c4)s3)n[nH]c12        > 8 µg/mL
1  CCCc1cccc2c(-c3cnc(-c4ccc(COP(=O)(O)O)nc4)s3)n[nH]c12        > 8 µg/mL
2  CCCc1cccc2c(-c3cnc(-c4ccc(C(=O)O)c(=O)[nH]4)s3)n[nH]c12        > 8 µg/mL
